method.notes: Human HepG2 cell viability assay in 384 well format
Type: toxicity, cell-based
Set-up: dose 125 nL, time 70.5 hour; concentration not given beside the values
conditions.used: HepG2 cells, read-out: Inhibition
quantity: cytotoxicity at 70.5 h (%)
Return type: number; implicit unit %.

Example compounds with recorded cytotoxicity at 70.5 h:
compound	units.label	cytotoxicity at 70.5 h
Cc1noc(C)c1C(=O)N1CCC2(CC1)CC(Oc1ccccc1)CO2 (stereo not drawn)	%	-3.84
COC(=O)C1CCCCN1C(=O)c1cn(C/C=C/c2ccccc2)nn1 (stereo not drawn)	%	23.4
O=C(CSc1ccncc1)N1C[C@H]2CC[C@@H]1CN(Cc1cccnc1)C2	%	-2.1

What the record says about Cc1ccc(CNC(=O)c2nc3c(o2)CN(C(=O)c2cccnc2)C3)o1 : cytotoxicity at 70.5 h is -1.67

What the record says about Cc1cnn(CC2CCCN2c2nn3cc(C)nc3s2)c1 (stereo not drawn) : cytotoxicity at 70.5 h is -4.6

What the record says about Fc1ccc(CN2CCO[C@H]3[C@H](OCC4CCCC4)CC[C@@H]32)cc1 : cytotoxicity at 70.5 h is -9.77

What the record says about Cc1cc(C)n2cc(CN3CCC(N4CCN(C)C4=O)CC3)nc2n1 : cytotoxicity at 70.5 h is -0.599

What the record says about CCn1cc(N2Cc3nc(N4CCC(C)CC4)ncc3C2=O)cn1 : cytotoxicity at 70.5 h is -8.76

###

method.notes: Human HepG2 cell viability assay in 384 well format
Assay type: toxicity, cell-based
Parameters: dose 125 nL, time 70.5 hour; concentration not given beside the values
conditions.used: HepG2 cells, read-out: Inhibition
quantity: cytotoxicity at 70.5 h
Record the result as a number with its unit.

Example compounds with recorded cytotoxicity at 70.5 h:
compound	value
Cc1ccc(S(=O)(=O)Nc2ccc(-n3cccc3C(=O)O)c(C)c2)cc1	-6.38%
Cc1cccc(CN2CCC3(CC2)NC(=O)C[C@H]3c2cnn(C)c2)n1	-8.35%
CN(C1CCCC1)C(C)(C)C(=O)NCCS(C)(=O)=O	2.52%
CC1CCN(CCNC(=O)c2sccc2C2CC2)CC1	-5.27%
CNC(=O)c1ccc(CN2CCC(N(C)Cc3noc(C)n3)C2)cc1 (stereo unspecified)	-0.459%

What the record says about Cc1cnn(CCNCc2csc(-c3ccsc3)n2)c1 : cytotoxicity at 70.5 h is -6.72%

###

method.notes: Human HepG2 cell viability assay in 384 well format
Type: toxicity, cell-based
Set-up: dose 125 nL, time 70.5 hour; concentration not given beside the values
conditions.used: HepG2 cells, read-out: Inhibition
Form field: cytotoxicity at 70.5 h (one value per entry).
Return type: number; implicit unit %.

molecule	quantity	value
O=C(c1ccc(C2CCCN2C(=O)c2ccc[nH]2)s1)N1CCSCC1 (configuration not stated)	cytotoxicity at 70.5 h	-19.6
Cc1nc(N2CCC(C(O)c3nccn3C)CC2)c2nc(C)oc2n1 (configuration not stated)	cytotoxicity at 70.5 h	-5.83
CCn1cnnc1CNC(=O)NCC(C(C)C)N1CCOCC1 (configuration not stated)	cytotoxicity at 70.5 h	-13
COc1ncccc1C(=O)NCCn1nc(C)ccc1=O	cytotoxicity at 70.5 h	-8.68
C[C@@H]1CN(C(=O)C2(Cn3cccn3)CC2)CC[C@@]1(O)C1CCOCC1	cytotoxicity at 70.5 h	-0.0584
Cc1ccc(NC2CCN(C(=O)COCC(F)(F)F)CC2)nn1	cytotoxicity at 70.5 h	10.1
C1CN(c2nc(C3CC3)ns2)CCS1	cytotoxicity at 70.5 h	-1.41
COCCN1CCC(c2nc3cc(C)ccc3[nH]2)CC1	cytotoxicity at 70.5 h	-8.34
Cc1ccc(Oc2ncccc2CNC2Cc3ccccc3C2)cn1	cytotoxicity at 70.5 h	-8.21
Cc1ccc(C)n1-c1ccsc1C(=O)NCC(=O)N1CCCC1	cytotoxicity at 70.5 h	-1.31

What the record says about CC(=O)NCCCSC1CCN(c2ccccc2Cl)C1=O (configuration not stated) : cytotoxicity at 70.5 h is -10.2

What the record says about Cc1nc2ccccc2c(=O)n1Cc1nnnn1C1CC1 : cytotoxicity at 70.5 h is 1.18

Where do these numbers come from? They come from ChEMBL document CHEMBL3507680.
